target: UniProt:P35346
method.notes: Displacement of SST14 from human recombinant SST5 receptor expressed in CHO cells by radioligand binding assay
Would you kindly list Ki for each of these molecules?
Answers are plain numbers, in nM.

CCOc1cc(CN2CCC(Nc3nc4ccccc4o3)CC2)ccc1OC1CC1 ... 537
CCOc1cc(CN2CCC(Nc3nc4cc([N+](=O)[O-])ccc4o3)CC2)ccc1OC ... 252
CCOc1cc(CN2CCC(Nc3nc4ccccc4o3)CC2)cc(OCC)c1N ... 33

Let us move to another entry and its Ki.
Value lookup for Ki; key = CCOc1cc(CN2CCC(Nc3nc4cc(OC(F)(F)F)ccc4o3)CC2)ccc1OC
354

====

method.notes: Clearance in Wistar rat administered as single dose
Type: ADME, organism-based
test.context: in vivo
outcome.measure: clearance

See these solved cases before continuing.
CCOc1cc(CN2CCC(Nc3nc4ccc(C(=O)O)cc4o3)CC2)cc(OCC)c1F ... 20 mL/min/kg
CCOc1cc(CN2CCC(Nc3nc4cc(C(=O)O)ccc4o3)CC2)cc(OCC)c1Cl ... 18 mL/min/kg
CCOc1cc(CN2CCC(Nc3nc4ccc(C(=O)O)cc4o3)CC2)ccc1Cl ... 27 mL/min/kg

Please give the measured clearance for this compound: CCOc1cc(CN2CCC(Nc3nc4ccc(Cl)cc4o3)CC2)ccc1Cl
37 mL/min/kg

====

target: Somatostatin receptor type 5 (Homo sapiens)
Sequence (P35346 whole entry): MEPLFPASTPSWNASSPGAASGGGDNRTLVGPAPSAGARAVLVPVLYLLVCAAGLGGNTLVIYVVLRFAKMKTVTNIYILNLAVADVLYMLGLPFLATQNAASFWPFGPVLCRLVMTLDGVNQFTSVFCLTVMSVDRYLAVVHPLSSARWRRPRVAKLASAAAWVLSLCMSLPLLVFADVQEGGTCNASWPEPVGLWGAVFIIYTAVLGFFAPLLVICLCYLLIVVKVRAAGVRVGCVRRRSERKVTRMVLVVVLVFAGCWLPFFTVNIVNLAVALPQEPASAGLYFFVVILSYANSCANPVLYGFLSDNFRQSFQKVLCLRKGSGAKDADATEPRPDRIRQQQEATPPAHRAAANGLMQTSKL
method.notes: Displacement of SST14 from human recombinant SST5 receptor expressed in CHO cells by radioligand binding assay
pKi: −log10 of the molar value.
# binarize pKi: threshold 7 inclusive, high side YES, low side NO

CC(C)Oc1cc(CN2CCC(Nc3nc4ccccc4o3)CC2)cc(OC(C)C)c1 ... YES
CCOc1cc(CN2CCC(Nc3nc4ncccc4o3)CC2)ccc1OC ... NO
CCOc1cc(CN2CCC(Nc3nc4ccccc4o3)CC2)c(F)cc1OCCO ... NO
CCOc1cc(CN2CCC(Nc3nc4cc(Cl)c(S(N)(=O)=O)cc4o3)CC2)ccc1OC ... NO
CCOc1cc(CN2CCC(Nc3nc4cccnc4o3)CC2)ccc1OC ... NO

hey, is pKi for this one >= 7? CCOc1cc(CN2CCC(Nc3nc4ccccc4o3)CC2)c(F)c(OCC)c1
NO

API: above_or_equal(metric=pKi, cutoff=7) for item CCOc1cc(CN2CCC(Nc3nc4cc(NC(C)=O)ccc4o3)CC2)ccc1OC
NO

Assess whether reported pKi for CCOc1cc(CN2CCC(Nc3nc4cc(NS(=O)(=O)c5ccccc5)ccc4o3)CC2)ccc1OC sits at 7 or higher.
NO

====

target: Somatostatin receptor type 5 (Homo sapiens)
method.notes: Displacement of SST14 from human recombinant SST5 receptor expressed in CHO cells by radioligand binding assay
outcome.measure: pKi
Give bare numbers, as −log10 of the molar value.

Study these solved cases before continuing.
CCOC(=O)c1c(OCC)cc(CN2CCC(Nc3nc4ccccc4o3)CC2)cc1OCC ... 6.81
CCOc1cc(CN2CCC(Nc3nc4ccc(Cl)cc4s3)CC2)ccc1OC ... 6.44
CCOc1cc(CN2CCC(Nc3nc4ccc(C(=O)O)cc4o3)CC2)ccc1Cl ... 7.64
CCOc1cc(CN2CCC(Nc3nc4cc(S(=O)(=O)N(C)C)ccc4o3)CC2)cc(OCC)c1-n1cccc1 ... 7.28
CCOc1cc(CN2CCC(Nc3nc4ccc(C(=O)O)cc4o3)CC2)cc(OCC)c1F ... 7.74

Batch request: pKi for each of the following compounds.
1. CCOc1cc(CN2CCC(Nc3nc4ccccc4o3)CC2)ccc1C(F)(F)F
2. CCOc1cc(CN2CCC(Nc3nc4ccccc4o3)CC2)cc(OCC)c1F
3. CCOc1cc(CN2CCC(Nc3nc4cc(NS(=O)(=O)c5cn(C)cn5)ccc4o3)CC2)ccc1OC

1. 6.28
2. 6.75
3. 6.76

====

target: Somatostatin receptor type 5 (Homo sapiens)
method.notes: Displacement of SST14 from human recombinant SST5 receptor expressed in CHO cells by radioligand binding assay
Binary call on Ki with cut-off 200 nM: strictly below means yes (1), and equality or higher means no (0).

CCOc1cc(NC2CCN(c3nc4ccccc4s3)CC2)ccc1OC ... no (0)
COc1ccc(CN2CCC(Nc3nc4ccccc4o3)CC2)cc1OCCF ... no (0)
CCOc1cc(NCc2cccc(Nc3nc4ccccc4s3)c2)ccc1OC ... no (0)
CCOc1cc(CN2CCC(Nc3nc4cc(C(N)=O)ccc4o3)CC2)cc(OCC)c1F ... yes (1)

Strictly below 200 nM in Ki? CCOc1cc(CN2CCC(Nc3nc4ccccc4s3)CC2)ccc1OC
no (0)

Is Ki strictly under 200 nM for the entry CCOc1cc(CN2CCC(Nc3nc4ccc(Cl)cc4o3)CC2)ccc1Cl ?
no (0)

Input CCOc1cc(CN2CCC(Nc3nc4ccccc4[nH]3)CC2)ccc1OC ; condition: Ki strictly below 200 nM. Does it hold?
no (0)

Take the molecule CCOc1cc(CN2CCC(Nc3nc4cc(S(=O)(=O)N(C)C)ccc4o3)CC2)ccc1OC and say whether its Ki is less than 200 nM.
no (0)

Find out if reported Ki for CCOc1cc(NC2CCC(NCc3nc4ccccc4s3)CC2)ccc1OC (stereo not drawn) is less than 200 nM
no (0)

Lab log: compare recorded Ki with 200 nM; is it strictly lower for CCOc1cc(NC2CCC(Nc3nc4ccccc4s3)CC2)ccc1OC (stereo not drawn) ?
no (0)

Dear reviewer, please state whether CCOc1cc(CN2CCC(Nc3nc4cc(S(N)(=O)=O)ccc4o3)CC2)ccc1OC has Ki strictly beneath 200 nM.
no (0)

For this molecule, is Ki lower than 200 nM? COc1ccc(CN2CCC(Nc3nc4ccccc4o3)CC2)cc1OC
no (0)

Regarding CCOc1cc(N2CCN(C(=O)Nc3nc4ccccc4s3)CC2)ccc1OC , kindly confirm whether its Ki is beneath 200 nM.
no (0)

Is it true that Ki reported for CCOc1cc(CN2CCC(Nc3nc4cc(C(=O)O)ccc4o3)CC2)cc(OCC)c1Cl is less than 200 nM?
yes (1)

Find out if reported Ki for CCOc1cc(CN2CCC(Nc3nc4ccncc4o3)CC2)ccc1OC is less than 200 nM
no (0)

I wonder whether CCOc1cc(CN2CCC(Nc3nc4cc(S(=O)(=O)CC)ccc4o3)CC2)cc(OC2CCOCC2)c1 has Ki below 200 nM. Can you tell?
yes (1)
